Biological target: PDK1 (Homo sapiens, UniProt O15530)
Construct: GST
Sequence (O15530 whole entry): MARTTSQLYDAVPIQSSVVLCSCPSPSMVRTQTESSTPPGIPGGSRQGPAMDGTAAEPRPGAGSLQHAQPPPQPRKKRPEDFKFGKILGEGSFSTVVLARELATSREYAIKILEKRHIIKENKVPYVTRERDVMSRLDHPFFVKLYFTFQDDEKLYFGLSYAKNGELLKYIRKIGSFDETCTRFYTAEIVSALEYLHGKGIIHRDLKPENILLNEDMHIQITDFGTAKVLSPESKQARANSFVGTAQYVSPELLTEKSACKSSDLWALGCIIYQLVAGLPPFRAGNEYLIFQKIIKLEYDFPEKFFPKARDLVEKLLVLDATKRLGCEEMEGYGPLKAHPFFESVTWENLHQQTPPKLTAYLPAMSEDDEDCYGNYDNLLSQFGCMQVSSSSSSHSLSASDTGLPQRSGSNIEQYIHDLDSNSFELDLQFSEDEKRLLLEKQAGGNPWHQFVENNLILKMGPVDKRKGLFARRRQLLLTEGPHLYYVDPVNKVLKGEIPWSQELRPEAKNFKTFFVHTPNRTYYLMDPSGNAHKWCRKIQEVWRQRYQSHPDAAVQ
Test: cell-free kinase activity assay (ATPgamma[32P], T308tide substrate)
Type: biochemical
Conditions: concentration of the compound required to activate half maximally; n.e.: no effect
Cut-off 10 µM on AC50: below means Fulfilled, at or above means Not fulfilled.

Incoming: Confirm or reject: AC50 of O=C(O)/C=C(/CCc1ccc2ccccc2c1)c1ccccc1 lies strictly below 10 µM
Outgoing: Fulfilled

Incoming: Confirm or reject: AC50 of O=C(O)/C=C(\CCc1ccc(F)cc1)c1ccccc1 lies strictly below 10 µM
Outgoing: Not fulfilled

Incoming: Confirm or reject: AC50 of O=C(O)/C=C(/CCc1ccc(Cl)c(Cl)c1)c1ccccc1 lies strictly below 10 µM
Outgoing: Fulfilled

Incoming: Confirm or reject: AC50 of Cc1ccc2oc(C(=CC(=O)O)c3ccccc3)cc2c1 (mixture of isomers) lies strictly below 10 µM
Outgoing: Not fulfilled

Incoming: Confirm or reject: AC50 of O=C(O)CC(c1ccccc1)c1cc2cc(Cl)ccc2o1 (stereo not drawn) lies strictly below 10 µM
Outgoing: Not fulfilled

Incoming: Confirm or reject: AC50 of O=C(O)/C=C(/CCc1cccc(Cl)c1)c1ccccc1 lies strictly below 10 µM
Outgoing: Not fulfilled

###

Target: PKBβ (Homo sapiens, UniProt P31751)
Sequence (P31751 whole entry, species assumed): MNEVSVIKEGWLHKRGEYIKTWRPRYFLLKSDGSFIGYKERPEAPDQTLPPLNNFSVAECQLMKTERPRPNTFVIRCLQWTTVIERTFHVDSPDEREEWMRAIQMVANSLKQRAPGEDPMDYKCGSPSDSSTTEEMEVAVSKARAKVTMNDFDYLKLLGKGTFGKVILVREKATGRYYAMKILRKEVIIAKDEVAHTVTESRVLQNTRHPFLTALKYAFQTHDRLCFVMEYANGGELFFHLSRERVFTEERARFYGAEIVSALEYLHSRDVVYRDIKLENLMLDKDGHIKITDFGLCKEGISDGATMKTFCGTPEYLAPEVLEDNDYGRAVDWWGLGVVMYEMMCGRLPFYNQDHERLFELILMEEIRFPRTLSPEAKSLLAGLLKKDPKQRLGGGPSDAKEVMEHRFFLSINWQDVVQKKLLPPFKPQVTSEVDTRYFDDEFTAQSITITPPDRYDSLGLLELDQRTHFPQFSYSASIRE
Assay: cell-free kinase activity assay
Type: biochemical
Settings: 50 μM compound; DMSO control set 100%; read-out: percent of catalytic activity of the Kinase in the presence of compound as compared to the solvent control (DMSO): PKBβ
quantity measured: remaining activity at 50 µM (%)
The response must be a number in % with no trailing unit.

Incoming: I am curious: what remaining activity at 50 µM value has been reported for O=C(O)/C=C(/c1ccccc1)c1cc2cc(Cl)ccc2s1 ?
Outgoing: 90

Incoming: I am curious: what remaining activity at 50 µM value has been reported for O=C(O)CC(Cc1nc2cc(Cl)ccc2[nH]1)c1ccc(Cl)cc1 (stereo not shown) ?
Outgoing: 85

###

Target: PKBβ (Homo sapiens, UniProt P31751)
Experiment: cell-free kinase activity assay
Format: biochemical
Details: 200 μM compound; DMSO control set 100%; read-out: percent of catalytic activity of the Kinase in the presence of compound as compared to the solvent control (DMSO): PKBβ
I'd be grateful if you could share measured remaining activity at 200 µM for these entries.

Incoming: I am curious: what remaining activity at 200 µM value has been reported for O=C(O)/C=C(\CCc1ccc(Cl)cc1)c1ccccc1F ?
Outgoing: ~70%

Incoming: I am curious: what remaining activity at 200 µM value has been reported for O=C(O)/C=C(/CCc1ccc(Br)cc1)c1ccccc1 ?
Outgoing: 70 to 80%

Incoming: I am curious: what remaining activity at 200 µM value has been reported for O=C(O)/C=C(/CCc1cccc(Cl)c1)c1ccccc1 ?
Outgoing: ~60%

Incoming: I am curious: what remaining activity at 200 µM value has been reported for O=C(O)/C=C1\c2ccccc2CC1Cc1ccc(Cl)cc1 (centres unmarked) ?
Outgoing: 60 to 70%

Incoming: I am curious: what remaining activity at 200 µM value has been reported for O=C(O)CC(Cc1nc2c(Cl)cc(Cl)cc2[nH]1)c1ccc(Cl)cc1 (centres unmarked) ?
Outgoing: ~70%

Incoming: I am curious: what remaining activity at 200 µM value has been reported for O=C(O)/C=C(/CCc1ccc(C(F)(F)F)cc1)c1ccccc1 ?
Outgoing: ~80%

Incoming: I am curious: what remaining activity at 200 µM value has been reported for O=C(O)CC(Cc1nc2cc(Cl)ccc2[nH]1)c1ccc(Cl)cc1 (centres unmarked) ?
Outgoing: 80%

Incoming: I am curious: what remaining activity at 200 µM value has been reported for O=C(O)/C=C(/c1ccccc1)c1cc2cc(Cl)ccc2s1 ?
Outgoing: 25%

Data provenance: patent US8912186B2
